Experiment: Physicochemical properties: absorption and fluorescence (Table 1)
measured_parameter: ε (cm^−1 M^−1) extinction coefficient (cm⁻¹ M⁻¹)

Some solved entries appear below for comparison.
COc1ccc2c(C[C@@H](N)C(=O)O)cc(=O)oc2c1.O=C(O)C(F)(F)F [Example 8] : 14000
N[C@@H](Cc1cc(=O)oc2cc(O)ccc12)C(=O)O.O=C(O)C(F)(F)F [Example 6] : 9000
CCOc1ccc2c(C[C@H](N)C(=O)O)cc(=O)oc2c1.O=C(O)C(F)(F)F [Example 11] : 13300
COc1cc(O)cc2oc(=O)cc(C[C@H](N)C(=O)O)c12.O=C(O)C(F)(F)F [Example 13] : 12700

[I] N[C@@H](Cc1cc(=O)oc2cc(O)cc(O)c12)C(=O)O.O=C(O)C(F)(F)F [Example 15]
[II] N[C@@H](Cc1ccc(O)cc1)C(=O)O [Y, tyrosine, reference compound]
Incoming: Select one: I or II . Criterion: greater recorded ε (cm^−1 M^−1) extinction coefficient. Refer to your chosen entry by its label in the reply.
Outgoing: I
(I: 11800 cm⁻¹ M⁻¹, II: 1400 cm⁻¹ M⁻¹)
